The values you see were collected from patent US20220195023A1.

molecular target: T1, CSP Protein (Plasmodium falciparum, UniProt Q7K740 19-374); experiment: SPR, antibody on chip;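 note: antibodies immobilized on a Carterra chip, directly or via anti-human Fc capture, at two spots each, with CSP flowed over at 4-5 concentrations peaking at 0.5-8 µg/mL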
T1 construct: also called circumsporozoite protein; complete CSP protein
T1 sequence (Q7K740 19-374 limits assumed): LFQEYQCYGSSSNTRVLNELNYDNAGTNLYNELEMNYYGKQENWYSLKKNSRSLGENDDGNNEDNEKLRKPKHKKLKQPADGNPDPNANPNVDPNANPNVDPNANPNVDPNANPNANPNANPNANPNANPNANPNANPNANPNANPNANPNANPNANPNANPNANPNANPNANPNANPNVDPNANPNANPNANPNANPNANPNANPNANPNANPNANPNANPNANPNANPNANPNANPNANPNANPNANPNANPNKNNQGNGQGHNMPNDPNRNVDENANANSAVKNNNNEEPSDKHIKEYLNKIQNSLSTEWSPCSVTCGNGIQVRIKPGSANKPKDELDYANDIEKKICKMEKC
I'd appreciate it if you could supply Kd values for the items below.
Provide only the numeric value, understood in nM.

Query block: Would you kindly share the measured Kd for AB-007057 (antibody, V domains shown) VH: QMQLVESGGGVVQPGRSLRLSCTASGFTFSTYAMHWVRQSPGQGLQWVAVISYHSTNKYYEDSVRGRFTISRDNSKNTLYLQMNSLRAEDTAVYYCARDGYHSSFFDFWGQGTLVTVSS VL: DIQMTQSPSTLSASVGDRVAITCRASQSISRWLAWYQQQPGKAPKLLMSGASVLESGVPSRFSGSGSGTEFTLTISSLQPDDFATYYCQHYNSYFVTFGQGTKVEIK ?
Result block: 0.153

Query block: Same question, AB-007034 (antibody, V domains shown) VH: QVQLVESGGGVVQPGRSLRLSCAASGFTFSTYAMHWVRQAPGQGLEWVAVISYHSTNKYYADSVRGRFTISRDNSKNTLYLQMNSLRAEDTAVYYCARDGYSSSFFDFWGQGTLVTVSS VL: DIQMTQSPSTLSASVGDRVTITCRASQSISRWLAWYQQQPGKAPKLLISGASVLESGVPSRFSGSGSGTEFTLTISSLQPDDFATYYCQHYNSYFVTFGQGTKVEIK this time
Result block: 0.0824

Query block: Now this one: AB-007048 (antibody, V domains shown) VH: QMQLVESGGGVVQPGRSLRLSCTASGFTFSTYSMHWVRQSPGQGLQWVAVISYHSTNKYYEDSVRGRFTISRDNSKNTLYLQMNSLRAEDTAVYYCARDGYSSSFFDFWGQGTLVTVSS VL: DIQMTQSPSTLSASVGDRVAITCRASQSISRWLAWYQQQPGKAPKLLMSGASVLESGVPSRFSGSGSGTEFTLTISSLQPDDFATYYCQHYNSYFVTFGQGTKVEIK
Result block: 0.437
